Values from paper PMC11239830

test system: S. aureus; test: MIC, broth microdilution; assay type: cell-based, Staphylococcus aureus; settings: Staphylococcus aureus, S. aureus 15B196, c-ermB; read-out: MIC
Observation type: MIC (µg/mL)

| Compound | Reported |
| --- | --- |
| CC[C@H]1OC(=O)[C@H](C)C(=O)[C@H](C)[C@@H](O[C@@H]2O[C@H](C)C[C@H](N(C)C)[C@H]2O)[C@](C)(OC)C[C@@H](C)C(=O)[C@H](C)[C@H]2N(CCCCn3cnc(-c4cccnc4)c3)C(=O)O[C@]12C [telithromycin, reference compound] | 64 |
| CC[C@H]1OC(=O)[C@H](C)[C@@H](OC(=O)NCCCCCC#Cc2ccc3c(=O)c(C(=O)O)cn(C4CC4)c3c2)[C@H](C)[C@@H](O[C@@H]2O[C@H](C)C[C@H](N(C)C)[C@H]2O)[C@](C)(OC)C[C@@H](C)C(=O)[C@H](C)[C@H]2NC(=O)O[C@@]21C [87c] | 64 |
